# experimental_system: recombinant human pancreatic GLK (Homo sapiens, UniProt P35557)
# Sequence (P35557 whole entry): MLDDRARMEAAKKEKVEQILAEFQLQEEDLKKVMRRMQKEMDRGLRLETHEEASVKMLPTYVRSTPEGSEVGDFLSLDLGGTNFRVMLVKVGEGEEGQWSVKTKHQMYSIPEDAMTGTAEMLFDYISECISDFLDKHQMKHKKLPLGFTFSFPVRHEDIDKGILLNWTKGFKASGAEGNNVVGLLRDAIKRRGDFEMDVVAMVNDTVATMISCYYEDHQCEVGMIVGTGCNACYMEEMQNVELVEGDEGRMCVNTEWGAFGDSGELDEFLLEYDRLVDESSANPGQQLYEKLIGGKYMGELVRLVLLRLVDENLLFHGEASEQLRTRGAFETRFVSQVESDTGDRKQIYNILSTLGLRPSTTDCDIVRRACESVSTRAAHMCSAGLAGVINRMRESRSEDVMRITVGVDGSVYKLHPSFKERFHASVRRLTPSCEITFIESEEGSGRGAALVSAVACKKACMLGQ
# assay_notes: biochemical
value_kind: pEC50
In textbook form, pEC50 equals minus log to base ten of the concentration in mol/L.

Input: State pEC50 (recombinant human pancreatic GLK (Homo sapiens, UniProt P35557)) of Cc1nsc(NC(=O)c2cc(Oc3ccc(S(C)(=O)=O)cc3)cc(O[C@@H](C)CO)c2)n1 .
Output: 7.30

###

Each entry below lists one item and its recorded melting point value.
Give just the number in °C; leave the unit off.

1. CCn1ccc(NC(=O)c2cc(Oc3ccc(C(=O)N4CCC4)cc3F)cc(O[C@@H](C)CO)c2)n1 :: 124

Input: Input C[C@@H](CO)Oc1cc(Oc2ccc(C(=O)N3CCC3)cc2F)cc(C(=O)Nc2ccn(C)n2)c1 , output reported melting point.
Output: 142

Values from patent US7745475B2
